Target: T1, human MAdCAM expressed on cells (human, UniProt Q13477 19-382)
T1 construct: whole, on cells; also called MADCAM1
T1 sequence (looked up): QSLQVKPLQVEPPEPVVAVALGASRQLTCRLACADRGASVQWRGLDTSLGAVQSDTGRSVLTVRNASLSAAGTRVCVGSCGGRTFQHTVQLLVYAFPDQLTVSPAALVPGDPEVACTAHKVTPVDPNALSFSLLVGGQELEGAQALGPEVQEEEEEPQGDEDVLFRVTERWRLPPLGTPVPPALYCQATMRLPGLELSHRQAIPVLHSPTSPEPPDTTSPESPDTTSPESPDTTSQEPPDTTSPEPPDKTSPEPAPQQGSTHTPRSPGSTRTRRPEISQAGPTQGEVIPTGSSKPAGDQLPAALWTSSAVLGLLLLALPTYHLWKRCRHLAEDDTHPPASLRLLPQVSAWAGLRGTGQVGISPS
Assay: cell binding
test_readout: binding result

Answer with the recorded binding result for the binder listed here: MAdCAM antibody Clone ID 40 of Table 6 (scFv) (scFv) scFv: QVQLVQSGAEVKKPGASVKVSCKASGYTFTSYGISWVRQAPGQGLEWMGIINPRGGSTIFAQKFQGRVTMTRDTSTSTVYMELSSLRSEDTAVYYCARGTRSSGWYGWFDPWGQGTLVTVSSGGGGSGGGGSGGGGSGGGGSDIQMTQSPSSLSASVGDRVTITCRASQGIGNWLAWYQQKPGKAPKLLIYAASNLETGVPSRFSGSGSGTDFTLTISSLQPEDFATYYCQQIHSYPLTFGGGTKVEIK
binds

Answer with the recorded binding result for the binder listed here: MAdCAM antibody Clone ID 17 of Table 6 (scFv) (scFv) scFv: EVQLLESGGGLVQPGGSLRLSCAASGFTFSDSAMHWVRQAPGKGLEWVSAISGSGSTIYYADSVKGRFTISRDNSKNTLYLQMNSLRAEDTAVYYCVSDIAVAGHWYFDLWGRGTLVTVSSGGGGSGGGGSGGGGSGGGGSDIQMTQSPSSLSASVGDRVTITCRASQSISTFLNWYQQKPGKAPKLLIYAASRLEGGVPSRFSGSGSGTDFTLTISSLQPEDFATYYCQQANSFPLTFGPGTKVDIK
binds

This collection of values is drawn from patent US20200392228A1.
